- System: S. Typhimurium PhoP-regulated promoter GFP reporter, 4 h
- experiment: inhibitors of PhoP regulon expression, primary screen, Salmonella Typhimurium, GFP reporter (AID 1863)
recorded.endpoint: pIC50
The scale used: pIC50 is minus the common logarithm of the concentration in molar units.

So for `COc1cc(C)c(Cc2cnc(N)nc2N)cc1OC` , the logged pIC50 turned out to be 4.93

Item: CCOc1ccc(NC(=O)c2ccc(NC(=O)c3cn4c5c(c(N6CCN(C)CC6)c(F)cc5c3=O)OCC4C)cc2)cc1 (configuration not stated) | pIC50: 5.53

Query O=C(NC(CO)C(O)c1ccc([N+](=O)[O-])cc1)C(Cl)Cl (configuration not stated) yields pIC50 of 5.01

According to the records, this compound `CC(=O)c1c(C)n([O-])c2cc(F)c(F)cc2[n+]1=O` displays pIC50 of 3.89

Briefly, pIC50 measured for `C[CH2][Hg][S]c1ccccc1C(=O)O` : 3.87

Others:
Reported pIC50 ( NC1CCN(c2nc3c(cc2F)c(=O)c(C(=O)O)cn3-c2ccc(F)cc2F)C1 (configuration not stated) ) = 6.31

Per the records, this compound ( `O=C(N/N=C/c1cc(O)ccc1Br)c1cccnc1` ) has pIC50 equal to 4.21

For reference, reported pIC50 for `O=S1(=O)N=C(N/N=C/c2ccccn2)c2ccccc21` stands at 4.46

Given item `Cc1ccc(Cn2c(=N)n(CC(=O)c3ccc([N+](=O)[O-])cc3)c3ccccc32)cc1` , the value recorded as its pIC50 is 3.85

The compound identified as `O=C1C(=O)c2ccccc2-c2ccccc21` registered its pIC50 at 4.93

# pIC50 (compound: `Nc1nc(N2CCN(C/C=C/c3ccccc3)CC2)nc2ccccc12` ) is 3.83

Sure, the documented pIC50 for `Clc1ccc(Cl)c(OCCCCNCc2ccccc2)c1` is 3.91

====

- System: S. Typhimurium PhoP-regulated promoter GFP reporter, 4 h
- experiment: inhibitors of PhoP regulon expression, primary screen, Salmonella Typhimurium, GFP reporter (AID 1863)
recorded.endpoint: IC50

Examples with their reported IC50 follow.
Entry COc1ccc(OCc2n(CC(=O)OC3CC(C)CCC3C(C)C)c3ccccc3[n+]2C)cc1 (centres undefined) ; IC50 = 74.9 µM

What the record says about `O=C(C[n+]1cc(-c2ccc(Cl)c(Cl)c2)n2c1CCC2)N1c2ccccc2Sc2ccccc21` : IC50 is 72.7 µM

For record `NC(N)=N/N=C/c1ccc(OCc2ccc(Cl)cc2)cc1` the listed IC50 is 39.4 µM

response.value for `Oc1cccc(C=NCc2ccccc2)c1O` (field: IC50) = 106 µM

Notebook: `O=C(N/N=C/c1cc(Cl)ccc1O)c1ccncc1` , IC50 read as 38 µM

Next:
The compound listed as Cc1conc1NC(c1cccs1)c1ccc2cccnc2c1O (centres undefined) has a reported IC50 of 60.9 µM

For this compound ( `O=C(CSc1nc2ccccc2s1)N/N=C/c1cc([N+](=O)[O-])ccc1O` ), measured IC50 is 109 µM

The compound listed as `O=C(N/N=C/c1cccc([N+](=O)[O-])c1O)c1cccs1` has a reported IC50 of 24.7 µM

`O=C(N/N=C/c1cc2c3c(c1O)CCCN3CCC2)c1ccccc1O` yielded IC50 of 138 µM

The compound listed as `Fc1ccc(Nc2nc(NCc3ccco3)c3ccccc3n2)cc1` has a reported IC50 of 37.9 µM
